The measurements presented in this section are drawn from paper PMC9482650.

target: IL16_1, Q14005; assay: holdup assay; design: key: below the threshold = too weak to quantify, mostly under pKd 3.1 to 4; conditions: plain residues with an end cap or a label only (N-terminal biotin on a linker: ahx)
Sequence (Q14005 210-306): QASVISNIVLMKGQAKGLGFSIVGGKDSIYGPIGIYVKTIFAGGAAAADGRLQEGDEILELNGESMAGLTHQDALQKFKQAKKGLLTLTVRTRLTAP
propertyMeasured: pKd

Consider the following illustrative entries.
[
  {
    "binder": "VNENQKEYFF [CNTNAP4, Q9C0A0]",
    "propertyMeasured": "pKd",
    "dataValue": "below the threshold"
  },
  {
    "binder": "KEYDDELTFF [USH1C, Q9Y6N9]",
    "propertyMeasured": "pKd",
    "dataValue": "below the threshold"
  },
  {
    "binder": "PKMKLNETSF [SHKBP1, Q8TBC3]",
    "propertyMeasured": "pKd",
    "dataValue": "below the threshold"
  },
  {
    "binder": "SAPATLSSRA [PDLIM2, Q96JY6]",
    "propertyMeasured": "pKd",
    "dataValue": "below the threshold"
  },
  {
    "binder": "YNSFLSVTTV [PDZRN3, Q9UPQ7]",
    "propertyMeasured": "pKd",
    "dataValue": "below the threshold"
  }
]

Now for the binder whose pKd we want.
Identify measured pKd corresponding to KDECVIATEV [DLL1, O00548]
3.47
